Test system: V-C8 + BRCA2 (BRCA2-proficient hamster cells)
Experiment: normalised cell viability (fraction of plate median); higher = more viable cells (less toxic)
Conditions: treatment time: 6 days; 5 µM
Structures can show the parent of a compound that is named as a salt. The full ranking holds about 1,300 compounds; the median of “normalised cell viability” is about 1, and the lowest 2% start at about 0.15. The list comes from a sample in which the lowest values are over-represented; it also holds close analogues and randomly drawn compounds.
readout-label: normalised cell viability

compound	target-or-system	endpoint-result
CCCCCCCCNC(C)C(O)c1ccc(SC(C)C)cc1 (centres undefined)	V-C8 + BRCA2 (BRCA2-proficient hamster cells)	0.743
C=C1/C(=C\C=C2/CCC[C@]3(C)[C@@H]([C@H](C)CCCC(C)C)CC[C@@H]23)C[C@@H](O)C[C@@H]1O	V-C8 + BRCA2 (BRCA2-proficient hamster cells)	0.719
CCN(CC)CCOCCOC(=O)C1(c2ccccc2)CCCC1 [Carbetapentane citrate]	V-C8 + BRCA2 (BRCA2-proficient hamster cells)	0.181
CO/N=C(\C(=O)N[C@@H]1C(=O)N2C(C(=O)O)=C(C[N+]3(C)CCCC3)CS[C@H]12)c1csc(N)n1 [Cefepime hydrochloride]	V-C8 + BRCA2 (BRCA2-proficient hamster cells)	0.888

---

System: V-C8 + BRCA2 (BRCA2-proficient hamster cells)
Assay: normalised cell viability (fraction of plate median); higher = more viable cells (less toxic)
Details: treatment time: 3 days; 5 µM
Structures can show the parent of a compound that is named as a salt. Whole data set: some 1,300 compounds, median “normalised cell viability” near 1, cut for the lowest 2% near 0.15. The sample as a whole holds a higher share of the lowest values than the screen did.
The reader will find reported normalised cell viability values listed item by item below.

compound	normalised cell viability
Cc1nnc(SCC2=C(C(=O)O)N3C(=O)[C@@H](NC(=O)Cn4cnnn4)[C@H]3SC2)s1 [Cefazolin sodium salt]	1.1
CC(=O)Oc1cccc2c1C(=O)c1c(OC(C)=O)cc(C(=O)O)cc1C2=O [Diacerein]	0.749
O=C(NCC1CCCCN1)c1cc(OCC(F)(F)F)ccc1OCC(F)(F)F (stereo not given) [Flecainide acetate]	1.12
CCN(CC)CCc1nc(-c2ccccc2)no1 [Oxalamine citrate salt]	1
CC(C)C(=O)c1c(C(C)C)nn2ccccc12 [Ibudilast]	0.987

---

Test system: V-C8 + BRCA2 (BRCA2-proficient hamster cells)
Experiment: normalised cell viability (fraction of plate median); higher = more viable cells (less toxic)
Details: treatment time: 3 days; 5 µM
Counter-ions that a name gives are not always drawn. In all, about 1,300 compounds were measured (“normalised cell viability”: median about 1, lowest 2% from about 0.15 on). Only a selection was taken, and the lowest values are over-represented in it overall.
The reader will find reported normalised cell viability values listed item by item below.

molecule	normalised cell viability
CCN(Cc1ccncc1)C(=O)C(CO)c1ccccc1 (centres undefined) [Tropicamide]	1.07
CCN(CC)CCN[C@@H](C(=O)OCCC(C)C)c1ccccc1 [Camylofine chlorhydrate]	0.957
Cc1onc(-c2ccccc2)c1C(=O)N[C@@H]1C(=O)N2[C@@H]1SC(C)(C)[C@@H]2C(=O)O [Oxacillin sodium]	1.04
CCC1(c2ccccc2)C(=O)NCNC1=O [Primidone]	0.947
O=C(CCCCCCC(=O)Nc1ccccc1)NO [Vorinostat]	0.132
CN(C)CCC[C@@]1(c2ccc(F)cc2)OCc2cc(C#N)ccc21 [Escitalopram]	1.1
O=C1Cc2cc(CCN3CCN(c4nsc5ccccc45)CC3)c(Cl)cc2N1 [Ziprasidone Hydrochloride]	0.206
O=C1[C@H](CC[C@H](O)c2ccc(F)cc2)[C@@H](c2ccc(O)cc2)N1c1ccc(F)cc1 [Ezetimibe]	1.03
CC(=O)c1ccc(S(=O)(=O)NC(=O)NC2CCCCC2)cc1 [Acetohexamide]	1.22
C=CCOC(Cn1ccnc1)c1ccc(Cl)cc1Cl (centres undefined) [Enilconazole]	0.985
Cc1cc(=O)n(-c2ccccc2)n1C [Antipyrine]	0.997
C[C@@]1(O)CCOC(=O)C1 [Mevalonic-D, L acid lactone]	1.09
Cc1ccnc2c1NC(=O)c1cccnc1N2C1CC1 [Nevirapine]	1.03
CCOC(=O)[C@H](CCc1ccccc1)N[C@H]1CCc2ccccc2N(CC(=O)O)C1=O [Benazepril HCl]	1.03
CCN(CC)C(=O)/C(C#N)=C/c1cc(O)c(O)c([N+](=O)[O-])c1 [Entacapone]	0.944
CC(C)(C)NC(=O)[C@@H]1C[C@@H]2CCCC[C@@H]2CN1C[C@@H](O)[C@H](Cc1ccccc1)NC(=O)[C@H](CC(N)=O)NC(=O)c1ccc2ccccc2n1 [Saquinavir mesylate]	0.842
CN1C2CCCC1CC(NC(=O)c1nn(C)c3ccccc13)C2 (centres undefined) [Granisetron]	1.03
CC(=O)Nc1ccc(CC(=O)O)cc1 [Actarit]	1.04
O=C(O)c1ccccc1OP(=O)(O)O [Fosfosal]	0.966
